Every entry's value here was drawn from the nanobody polyreactivity screen of Harvey et al. (2022).

Assay: yeast display, Sf9 membrane polyspecificity reagent, FACS + sequencing; frameworks hold sequencing errors
metric_name: polyreactivity (PSR sort gate)

INSERT INTO measurements (monomer_sequence, observed_result) VALUES
  ('QVQLVESGGGLVQAGGSLRLSCAPSGRTFWSYAMGWYRQAPGKERELVAAISLDDGTTYYADSVKGRFTISRDNAKNTVYLQMNSLKPEDTAVYDCAAEREQGDDGYGPDYGYWGQGTQVTVSS', 'high polyreactivity'),
  ('QVHRVESGGGLVQAGGCLRLSCAASGRTFARYVMGGYRQAPGKERELVAAINSGGTTYYADSVKGRFTISRDNAKNTVYLQMNSLKPEDTAVYYCNGRRGHYAYDYWGQGTQVTVSS', 'high polyreactivity'),
  ('QVQLVESGGGLVQAGGSLRLTCAASGGTFDRNAMGWYRQAPGKERELVATITRRAGNTYYAYSVKGRFTISRDNAKNTVYLQMNSLKPEDTAVYYFAAYPLRSRRYYYWGQGTQVTVSS', 'high polyreactivity'),
  ('QVQLVESGGGLVQAGGSLRLSCAASGIILPYYAMGWYRQAPGKEREIVATISSDGTSTYYADSVKGRFTISRDNAKNTVYLQMNSLKPEDTAVYYCAARIRQNPGGDNSWGQGTQVTVSS', 'low polyreactivity'),
  ('QVQLVESGGRLVQAGGRLRLRSAASGFTFSRNAMGWYRQAPGKERELVAAIDSGGSTDYAVSVKGRFTISRDNAKNTVYLQMNSLKPADTAVYYCAKASSATRYVQLRQDYDYWGQGTQVTVSS', 'low polyreactivity');

Q: Query: polyreactivity (PSR sort gate); subject: QVQLVESGGGLVQAGGSLRLSCAASGITFQRYAMGWYRQAPGKERELVAAITRRGGSTYYADSVKGRFTISRDNAKNTVYLQMNILKPEDTAVYYCAADLFFKARGYDYWGQGTQVTVSS
Result: high polyreactivity

Q: Query: polyreactivity (PSR sort gate); subject: QVQLVESGGGLVQAGGSLRLSCAASGRTFSVNAMGWYRPAPGKERELVAAISSGGGTNYADSVKGRFTISRDNAKNTVYLQMNSLKPEDTAVYYCAARTFGYPSHRQEMEYWGQGTQVTVSS
Result: low polyreactivity

Q: Query: polyreactivity (PSR sort gate); subject: QVQLEESGGVLVQAGGSLRLSCAASGRTFGHYAMGWYRPAPGKERELVAAITRDDGTNYADSVKGRFTISGDNAKNTVYLQMNRLKPEDTAVYYCNADVWLRRVYDYWGQGTQVTVSS
Result: low polyreactivity

Q: Query: polyreactivity (PSR sort gate); subject: QVQLEESGGGLVQAGGSLRLSCAASGLICVLYTMGSYRQAPGKERELVATINWGGGNTYYADSVKGRFTISRDNAKNTVYLQMNSLKPEDTAVYYCAAAYTWYGYSQAYYYWGQGTQVTVSS
Result: low polyreactivity

Q: Query: polyreactivity (PSR sort gate); subject: QVQLVESGGGLVQAGGSLRLSCAASGSTFGNYAMGWYRQAPGKERELVAVITSAGSTYYADSVKGRFTISRDNAKNTVYLQMNSLKPDDTAVYYCNTGKHVRYYYWGQGTQVTVSS
Result: low polyreactivity

Q: Query: polyreactivity (PSR sort gate); subject: QVQLVESGGGLVQAGGSLRLSCAASGSIFVYYTMGWYRKAPGKERELVASIDSGDRTNYADSVKGRFTISRDNAKNTVYLQMNSLKPEDTAVYYCAARHSRSWRFNSRRRYGYWGQGTQVTVSS
Result: high polyreactivity
